B1: IFRG15 (parent)
chain: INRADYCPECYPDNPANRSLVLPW

Variants of: B1
Test: protein stability index of a GFP-peptide fusion (GPS, HEK-293T) (PSI 1-6); higher = more stable;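 note: lentivirally expressed fusions sorted by FACS into six bins by GFP to DsRed ratio, PSI derived from sequencing read proportions per bin multiplied by bin number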
Settings: c terminus: a fixed tail appended
test_readout: protein stability index

| mutation_key | test_readout | reported_result |
| --- | --- | --- |
| A4C | protein stability index | 1.78 |
| R18W | protein stability index | 1.69 |
| D13K | protein stability index | 1.68 |
| N14H | protein stability index | 2.52 |
| N2E | protein stability index | 2.11 |
| D13T | protein stability index | 2.37 |
| L22H | protein stability index | 1.49 |
| R3P | protein stability index | 2.42 |
| P12C | protein stability index | 1.69 |
